- Test system: HepG2 cells
- ASSAY_SETUP: human, 48 h

COMPOUND	CC50
CCCCCCCCCC1CC(O)=C(C(=O)CCC)C(=O)O1 (stereo not shown)	38 µM

====

- System: Staphylococcus aureus strain LMG15975
- ASSAY_TEXT: MIC by broth micro-dilution, AM3/PBS 1:1
- Format: cell-based
- ASSAY_SETUP: LMG15975, S. aureus LMG15975, Table 1, read-out: MIC (μg/ml)
MEASURED_ATTRIBUTE: MIC

MOLECULE	RECORDED_VALUE
COCCCCCCC1CC(O)=C(C(=O)CC2CC2)C(=O)O1 (stereo not shown) [Ex. 25]	> 20 µg/mL
CCCCCCCCC1CC(O)=C(C(=O)CCC)C(=O)O1 (stereo not shown) [Ex. 13]	0.8 to 1.5 µg/mL
CCCCCCCCCC1CC(O)=C(C(=O)CC)C(=O)O1 (stereo not shown) [Ex. 5]	0.65 µg/mL
COCCCCCCC1CC(O)=C(C(=O)CC2CCCC2)C(=O)O1 (stereo not shown) [Ex. 23]	10 to 20 µg/mL
N#CCCCCCCCC1CC(O)=C(C(=O)CC2CCCCC2)C(=O)O1 (stereo not shown) [Ex. 28]	> 20 µg/mL
CCCCCCCCCC1CC(O)=C(C(=O)CCCCC)C(=O)O1 (stereo not shown) [Ex. 18]	0.6 to 0.8 µg/mL
CCCCCCCCC1CC(O)=C(C(=O)CC)C(=O)O1 (stereo not shown) [Ex. 6]	1.2 µg/mL
CCCC(=O)C1=C(O)CC(CC(C)CCC=C(C)C)OC1=O (stereo not shown) [Ex. 21]	2 to 3 µg/mL
CCCCCCCCCC1CC(O)=C(C(=O)CC2CCOCC2)C(=O)O1 (stereo not shown) [Ex. 26]	0.5 to 1 µg/mL
CCCCCCCCCC1CC(O)=C(C(=O)CC(C)C)C(=O)O1 (stereo not shown) [Ex. 15]	0.2 to 0.4 µg/mL
CCCCCCCCC[C@H]1CC(O)=C(C(=O)CCC)C(=O)O1 [Ex. 2B]	0.4 to 0.6 µg/mL
N#CCCCCCCCC1CC(O)=C(C(=O)CC2CCOCC2)C(=O)O1 (stereo not shown) [Ex. 27]	2 to 5 µg/mL
CCCCCCCCCC1CC(O)=C(C(=O)CC2CCCCC2)C(=O)O1 (stereo not shown) [Ex. 14]	0.25 µg/mL
CCCCCCCCCCC1CC(O)=C(C(=O)CC)C(=O)O1 (stereo not shown) [Ex. 10]	0.4 to 0.8 µg/mL
CCCCCCC/C=C/C1CC(O)=C(C(=O)CCC)C(=O)O1 (stereo not shown) [Ex. 4]	0.8 to 1.2 µg/mL
CCCCCCCCC[C@@H]1CC(O)=C(C(=O)CCC)C(=O)O1 [Ex. 2A]	1 to 2 µg/mL
CCCCCCCCCC1CC(O)=C(C(=O)CCC)C(=O)O1 (stereo not shown) [Ex. 1]	0.8 µg/mL
CCCCCCCCCC1CC(O)=C(C(=O)CCOC)C(=O)O1 (stereo not shown) [Ex. 24]	2 to 5 µg/mL
CCCC(=O)C1=C(O)CC(CCCCCCCC#N)OC1=O (stereo not shown) [Ex. 19]	40 to 50 µg/mL
CCCCCCCCCCCC1CC(O)=C(C(=O)CCC)C(=O)O1 (stereo not shown) [Ex. 16]	0.1 to 0.2 µg/mL
CCCCCCCCCC1CC(O)=C(C(=O)CCCC)C(=O)O1 (stereo not shown) [Ex. 8]	≤ 0.6 µg/mL
CCCC(=O)C1=C(O)CC(CCCCCCCOC)OC1=O (stereo not shown) [Ex. 20]	20 to 30 µg/mL
